LRRK2 (Homo sapiens, UniProt Q5S007) data, read-out pKi
Sequence (Q5S007 whole entry G2019S, form open): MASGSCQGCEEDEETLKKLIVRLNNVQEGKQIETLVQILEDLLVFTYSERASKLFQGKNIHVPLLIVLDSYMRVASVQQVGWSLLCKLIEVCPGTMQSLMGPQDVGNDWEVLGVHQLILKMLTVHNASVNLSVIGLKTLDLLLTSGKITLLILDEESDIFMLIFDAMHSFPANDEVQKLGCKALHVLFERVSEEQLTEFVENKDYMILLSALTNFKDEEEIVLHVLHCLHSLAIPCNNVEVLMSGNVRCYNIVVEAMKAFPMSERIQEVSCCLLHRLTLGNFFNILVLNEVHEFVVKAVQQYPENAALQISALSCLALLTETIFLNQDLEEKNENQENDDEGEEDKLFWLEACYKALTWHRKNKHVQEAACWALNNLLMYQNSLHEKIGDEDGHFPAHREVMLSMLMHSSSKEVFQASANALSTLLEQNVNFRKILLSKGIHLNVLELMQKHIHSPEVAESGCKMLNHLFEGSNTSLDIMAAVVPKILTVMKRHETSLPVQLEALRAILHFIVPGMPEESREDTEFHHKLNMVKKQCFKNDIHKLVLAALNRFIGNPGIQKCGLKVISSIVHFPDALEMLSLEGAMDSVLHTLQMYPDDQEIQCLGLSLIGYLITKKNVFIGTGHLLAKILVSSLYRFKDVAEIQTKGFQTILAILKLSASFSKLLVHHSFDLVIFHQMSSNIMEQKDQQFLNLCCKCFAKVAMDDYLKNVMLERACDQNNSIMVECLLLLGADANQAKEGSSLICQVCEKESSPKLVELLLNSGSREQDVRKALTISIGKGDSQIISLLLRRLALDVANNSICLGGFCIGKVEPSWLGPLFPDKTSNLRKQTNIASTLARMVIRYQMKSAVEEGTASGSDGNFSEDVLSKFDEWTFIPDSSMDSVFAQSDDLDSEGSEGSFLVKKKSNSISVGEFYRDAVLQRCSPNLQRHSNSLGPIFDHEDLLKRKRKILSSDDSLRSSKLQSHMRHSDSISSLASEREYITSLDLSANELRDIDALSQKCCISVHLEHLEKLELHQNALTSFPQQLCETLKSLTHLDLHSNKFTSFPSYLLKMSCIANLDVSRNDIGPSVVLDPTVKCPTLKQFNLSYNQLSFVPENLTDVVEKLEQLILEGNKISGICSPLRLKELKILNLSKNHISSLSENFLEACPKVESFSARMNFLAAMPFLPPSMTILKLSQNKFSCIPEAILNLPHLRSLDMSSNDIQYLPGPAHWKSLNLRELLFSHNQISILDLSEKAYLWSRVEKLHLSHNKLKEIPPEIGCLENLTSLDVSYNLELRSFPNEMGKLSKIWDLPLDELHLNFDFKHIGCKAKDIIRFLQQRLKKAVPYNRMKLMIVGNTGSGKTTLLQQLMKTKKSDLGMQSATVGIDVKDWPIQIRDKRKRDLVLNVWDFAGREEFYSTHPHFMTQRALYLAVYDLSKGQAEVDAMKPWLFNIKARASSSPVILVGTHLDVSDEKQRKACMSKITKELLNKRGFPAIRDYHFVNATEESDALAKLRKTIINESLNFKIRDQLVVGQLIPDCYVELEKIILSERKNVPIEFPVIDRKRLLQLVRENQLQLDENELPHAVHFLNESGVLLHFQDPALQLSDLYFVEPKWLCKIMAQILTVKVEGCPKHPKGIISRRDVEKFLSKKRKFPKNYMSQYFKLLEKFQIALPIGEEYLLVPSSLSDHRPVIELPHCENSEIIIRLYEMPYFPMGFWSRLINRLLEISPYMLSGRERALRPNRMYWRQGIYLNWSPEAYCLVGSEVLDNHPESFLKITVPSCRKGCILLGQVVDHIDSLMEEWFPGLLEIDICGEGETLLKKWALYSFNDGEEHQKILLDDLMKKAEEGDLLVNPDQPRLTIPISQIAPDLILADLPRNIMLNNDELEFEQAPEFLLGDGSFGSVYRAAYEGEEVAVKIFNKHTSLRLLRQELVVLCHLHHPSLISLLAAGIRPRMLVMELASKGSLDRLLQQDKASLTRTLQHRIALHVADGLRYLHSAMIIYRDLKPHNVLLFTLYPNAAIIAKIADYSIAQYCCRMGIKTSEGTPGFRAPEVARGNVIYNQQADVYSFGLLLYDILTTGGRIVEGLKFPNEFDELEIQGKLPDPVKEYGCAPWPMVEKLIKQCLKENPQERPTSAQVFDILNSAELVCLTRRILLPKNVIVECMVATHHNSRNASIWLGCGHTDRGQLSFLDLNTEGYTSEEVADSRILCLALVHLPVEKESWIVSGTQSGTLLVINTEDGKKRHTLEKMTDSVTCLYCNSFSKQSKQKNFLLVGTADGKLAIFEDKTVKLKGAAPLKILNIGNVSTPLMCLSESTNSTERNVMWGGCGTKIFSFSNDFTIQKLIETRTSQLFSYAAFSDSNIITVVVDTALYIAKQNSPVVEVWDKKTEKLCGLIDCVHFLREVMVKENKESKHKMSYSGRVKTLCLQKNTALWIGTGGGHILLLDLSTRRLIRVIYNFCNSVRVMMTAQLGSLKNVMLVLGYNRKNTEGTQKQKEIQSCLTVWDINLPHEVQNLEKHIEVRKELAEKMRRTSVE
Answers are plain numbers, as −log10 of the molar value.

Answered examples (2):
molecule=CC(C)Nc1nccc2[nH]nc(-c3cc(N4CCOCC4)ccn3)c12 tgt="LRRK2 (Homo sapiens, UniProt Q5S007)" readout_number=8.80
molecule=Cc1cccc(-c2n[nH]c3ccnc(NC4CCOCC4)c23)n1 tgt="LRRK2 (Homo sapiens, UniProt Q5S007)" readout_number=8.74

// input: 8 molecules below; output: pKi for each
1. CC(C)Nc1nccc2[nH]nc(-c3cc(C4CCCO4)ccn3)c12 (stereo not shown)
2. CC(C)n1cc(-c2n[nH]c3ccnc(NC4CCOCC4)c23)nn1
3. CC(C)Nc1nccc2[nH]nc(-c3cc(C#N)ccn3)c12
4. FC(F)(F)c1cc(-c2n[nH]c3ccnc(NCC4CC4)c23)ncn1
5. Cc1cc2[nH]nc(-c3cc(C(F)(F)F)ncn3)c2c(NC2CCOCC2)n1
6. CCc1cc(-c2n[nH]c3ccnc(NC(C)C)c23)nn1C
7. CC(C)S(=O)(=O)c1ccnc(-c2n[nH]c3ccnc(NC4CCOCC4)c23)c1
8. CCNc1nccc2[nH]nc(-c3cn(C(C)C)nn3)c12

1: 8.36; 2: 8.77; 3: 8.64; 4: 7.69; 5: 7.18; 6: 8.46; 7: 7.63; 8: 7.88

// input: 2 molecules below; output: pKi for each
1. CCNc1nccc2[nH]nc(-c3ccncn3)c12
2. FC(F)(F)c1cc(-c2n[nH]c3ccnc(NC4CCOCC4)c23)ncn1

1: 6.82; 2: 8.54

// input: 7 molecules below; output: pKi for each
1. Cc1cc2[nH]nc(-c3cc(C(F)(F)F)ccn3)c2c(NC2CCOCC2)n1
2. CCNc1nccc2[nH]nc(-c3cc(C#N)ccn3)c12
3. CC(C)Nc1nccc2[nH]nc(-c3ccccn3)c12
4. CCc1cc(-c2n[nH]c3ccnc(NC4CCOCC4)c23)nn1C
5. CCOc1cc(-c2n[nH]c3cc(C)nc(NC4CCOCC4)c23)ncn1
6. CC(C)Nc1nccc2[nH]nc(-c3cc(Cl)ccn3)c12
7. CCNc1nccc2[nH]nc(-c3cn(C)cn3)c12

[7.40, 7.85, 7.96, 9.30, 7.41, 8.60, 7.47]

###

Target: LRRK2 (Homo sapiens, UniProt Q5S007)
pKi: −log10 of the molar value.
Kindly return class 1 if reported pKi is no lower than 8; return class 0 if it is lower.

Here are 3 molecules together with their reported answers.
molecule=CC(C)Nc1nccc2[nH]nc(-c3cc(C(F)(F)F)ccn3)c12 tgt="LRRK2 (Homo sapiens, UniProt Q5S007)" class="class 1"
molecule=Cc1cc(C(F)(F)F)cc(-c2n[nH]c3ccnc(NC4CCOCC4)c23)n1 tgt="LRRK2 (Homo sapiens, UniProt Q5S007)" class="class 1"
molecule=CC(C)Nc1nccc2[nH]nc(-c3cc(C(=O)N(C)C)ccn3)c12 tgt="LRRK2 (Homo sapiens, UniProt Q5S007)" class="class 0"

Does the molecule CC(C)Nc1nccc2[nH]nc(-c3cc(C4CCOC4)ccn3)c12 (stereo not shown) have recorded pKi that is 8 or more? class 1

Does the molecule `CC(C)Nc1nccc2[nH]nc(-c3nnc(C4CC4)n3C)c12` have recorded pKi that is 8 or more? class 0

###

Target: LRRK2 (Homo sapiens)
pKi: −log10 of the molar value.
Kindly return 1 (yes) if reported pKi is no lower than 8; return 0 (no) if it is lower.

Here are 5 compounds together with their reported answers.
compound=CC(C)n1cnc(-c2n[nH]c3ccnc(NC4CCOCC4)c23)c1 class="1 (yes)"
compound="CC(C)Nc1nccc2[nH]nc(-c3cc(C4CCCO4)ncn3)c12 (centres unmarked)" class="0 (no)"
compound=CC(C)Nc1nccc2[nH]nc(-c3ccncn3)c12 class="0 (no)"
compound=CC(C)Nc1nccc2[nH]nc(-c3cc(-c4cccnc4F)ccn3)c12 class="1 (yes)"
compound=CC(C)Nc1nccc2[nH]nc(-c3cc(-c4ccnn4C)ccn3)c12 class="1 (yes)"

Here's the next entry for you.
Does the compound `CC(C)Nc1nccc2[nH]nc(-c3cc(C(=O)N(C)C)ncn3)c12` have recorded pKi that is 8 or more? 0 (no)
